All figures here come from the Immune Epitope Database (IEDB).

target: HLA-A*31:01; assay: IEDB peptide-MHC binding, purified MHC/competitive/radioactivity; filed as Kd, often an IC50 or EC50 that approximates it; bounds were set here for any values at or beyond the usual limits of such assays; details: source organism: SARS coronavirus Tor2
pKd: −log10 of the molar value.
pKd for assorted sequences

- seq_string: "TLNVLAWLY"
  result_operator: "="
  pKd: 5.57
- seq_string: "RLCLFDRYFK"
  result_operator: "="
  pKd: 7.34
- seq_string: "DFAVSKGFFK"
  result_operator: "="
  pKd: 5.98
- seq_string: "ATEGALNTPK"
  result_operator: "="
  pKd: 5.55
- seq_string: "TTTSTALGK"
  result_operator: "="
  pKd: 5.97
- seq_string: "GFPFNKWGK"
  result_operator: "="
  pKd: 6.14
- seq_string: "NLKQLPFFYY"
  result_operator: "≤"
  pKd: 4.15
- seq_string: "AVVYRGTTTY"
  result_operator: "="
  pKd: 5.30
- seq_string: "SMQNCLLRLK"
  result_operator: "="
  pKd: 7.74
- seq_string: "FFTYLCGFIK"
  result_operator: "="
  pKd: 6.21
- seq_string: "TSTGNYNYK"
  result_operator: "="
  pKd: 6.82
- seq_string: "TQWSLFFFVY"
  result_operator: "="
  pKd: 5.80
- seq_string: "GVTFQGKFKK"
  result_operator: "="
  pKd: 5.55
- seq_string: "AIYVFCISLK"
  result_operator: "="
  pKd: 4.95
- seq_string: "VLLRKNGNK"
  result_operator: "="
  pKd: 5.63
